# credit: paper PMC10296036

# Target under test: porcine pancreatic α-amylase (Sus scrofa, UniProt P00690)
# Construct: purchased Sigma-Aldrich
# Sequence (P00690 16-511): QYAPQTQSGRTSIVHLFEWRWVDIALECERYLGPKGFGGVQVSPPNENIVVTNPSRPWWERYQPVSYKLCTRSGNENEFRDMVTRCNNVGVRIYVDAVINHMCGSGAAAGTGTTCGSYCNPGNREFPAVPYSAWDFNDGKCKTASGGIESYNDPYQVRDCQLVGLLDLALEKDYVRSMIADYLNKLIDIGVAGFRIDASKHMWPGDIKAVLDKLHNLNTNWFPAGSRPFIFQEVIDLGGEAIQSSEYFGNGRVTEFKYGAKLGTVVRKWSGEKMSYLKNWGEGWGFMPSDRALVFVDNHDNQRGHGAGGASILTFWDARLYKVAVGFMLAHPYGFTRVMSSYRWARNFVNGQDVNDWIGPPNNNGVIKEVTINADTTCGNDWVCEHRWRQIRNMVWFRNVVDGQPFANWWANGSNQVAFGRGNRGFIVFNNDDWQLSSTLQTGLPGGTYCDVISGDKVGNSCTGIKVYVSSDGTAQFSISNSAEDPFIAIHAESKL
# Assay comment: Kinetic parameters and Lineweaver-Burk analysis, pancreatic α-amylase
# Assay type: biochemical
# Study conditions: inhibitor concentration: acarbose 387, PPC80 730, PPC82 795, PPC84 870, PPC89 675, PPC101 532 µM; no inhibitor Vmax 100.70 ± 0.34
Marks after values point to notes of the source that are not given here.
Provide the recorded Vmax (pancreatic α-amylase in presence of inhibitor) for the entries that follow.

Give the reported value of Vmax (pancreatic α-amylase in presence of inhibitor) for this record: CCCCCCCCCCCCNCCCCNC(=O)[C@@H](NC(=O)OC(C)(C)C)[C@@H](C)CC [PPC101]
100.00 ± 1.55 ^a µM/min

Give the reported value of Vmax (pancreatic α-amylase in presence of inhibitor) for this record: C[C@H]1O[C@H](O[C@H]2[C@H](O)[C@@H](O)[C@@H](O[C@H]3[C@H](O)[C@@H](O)C(O)O[C@@H]3CO)O[C@@H]2CO)[C@H](O)[C@@H](O)[C@@H]1N[C@H]1C=C(CO)[C@@H](O)[C@H](O)[C@H]1O (stereo partly drawn) [Acarbose, acarbose, reference compound]
100.30 ± 0.89 ^a µM/min

Give the reported value of Vmax (pancreatic α-amylase in presence of inhibitor) for this record: CCCCCCCCCCNC(=O)[C@@H](NC(=O)OC(C)(C)C)[C@@H](C)CC [PPC89]
99.73 ± 1.77 ^a µM/min

###

# Target under test: porcine pancreatic lipase (Sus scrofa)
# Construct: purchased Sigma-Aldrich
# Sequence (P00591 whole entry): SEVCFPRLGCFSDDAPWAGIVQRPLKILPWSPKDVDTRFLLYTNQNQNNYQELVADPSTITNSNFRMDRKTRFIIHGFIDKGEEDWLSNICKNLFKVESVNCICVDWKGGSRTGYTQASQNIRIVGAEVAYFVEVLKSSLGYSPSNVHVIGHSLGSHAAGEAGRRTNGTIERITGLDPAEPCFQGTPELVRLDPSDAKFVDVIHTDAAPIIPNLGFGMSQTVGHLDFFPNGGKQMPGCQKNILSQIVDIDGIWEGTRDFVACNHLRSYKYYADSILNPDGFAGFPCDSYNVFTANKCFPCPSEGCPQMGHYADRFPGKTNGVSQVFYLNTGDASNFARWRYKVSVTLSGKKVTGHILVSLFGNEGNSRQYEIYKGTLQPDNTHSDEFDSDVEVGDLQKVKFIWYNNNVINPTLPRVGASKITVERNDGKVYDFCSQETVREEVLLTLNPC
# Assay comment: Kinetic parameters and Lineweaver-Burk analysis, pancreatic lipase
# Format: biochemical
# Study conditions: inhibitor concentration: orlistat 101 µM, PPC80 146 µM, PPC82 159 µM, PPC84 174 µM; no inhibitor slope 2.77
Measurement label: Slope (Lineweaver-Burk, pancreatic lipase)
Kindly write the number and append the unit.

Give the reported value of Slope (Lineweaver-Burk, pancreatic lipase) for this record: CCCCCCCCNC(=O)[C@@H](NC(=O)OC(C)(C)C)[C@@H](C)CC [PPC80]
4.65 min⁻¹

Give the reported value of Slope (Lineweaver-Burk, pancreatic lipase) for this record: CCCCCCCCCCC[C@@H](C[C@@H]1OC(=O)[C@H]1CCCCCC)OC(=O)[C@H](CC(C)C)NC=O [Orlistat, orlistat, reference compound]
4.10 min⁻¹

Give the reported value of Slope (Lineweaver-Burk, pancreatic lipase) for this record: CCCCCCNC(=O)[C@@H](NC(=O)OC(C)(C)C)[C@@H](C)CC [PPC82]
5.79 min⁻¹

Give the reported value of Slope (Lineweaver-Burk, pancreatic lipase) for this record: CC[C@H](C)[C@H](NC(=O)OC(C)(C)C)C(=O)NCCCN [PPC84]
3.19 min⁻¹
